Entries and their cytotoxicity at 70.5 h
Protocol text: Human HepG2 cell viability assay in 384 well format
Type: toxicity, cell-based
Parameters: dose 125 nL, time 70.5 hour; concentration not given beside the values
Protocol conditions: HepG2 cells, read-out: Inhibition

These solved cases illustrate the format of a correct answer.
- Molecule: "CN(C)Cc1cnc(C2CCN(C(=O)c3ccccc3F)C2)[nH]1 (configuration not stated)"
  Recorded measurement: "-3.2%"
- Molecule: "COc1ccc(S(=O)(=O)N2CCc3ccc(Cl)cc32)cc1C(=O)O"
  Recorded measurement: "0.6%"
- Molecule: "Cc1cc(C(=O)N2CCc3nnc(N)cc3C2)c(C)n1-c1cccnc1"
  Recorded measurement: "-1.23%"
- Molecule: "Cn1nc2c(cc1=O)CN(CC1CCCCO1)CC2 (configuration not stated)"
  Recorded measurement: "-2.64%"
- Molecule: "CC(C)CC(NC(=O)c1ccn(C)c(=O)c1)c1cccs1 (configuration not stated)"
  Recorded measurement: "33.9%"
- Molecule: "CCn1cc(-c2cc(C(=O)N3CCOCC3)c3cc(Cl)ccc3n2)cn1"
  Recorded measurement: "-5.95%"
- Molecule: "Cc1n[nH]c(C2CN(C(=O)c3ccc4c(c3)CCCC4)CCO2)n1 (configuration not stated)"
  Recorded measurement: "21%"
- Molecule: "O=C(c1ccoc1)N1CCC(NCc2ccccc2-n2ccnc2)CC1"
  Recorded measurement: "9.01%"

Problem: Fill in cytotoxicity at 70.5 h for record Cc1ccc(OCCC(=O)NC2CC(=O)N(C)C2)cc1C (configuration not stated)
Result: -6.43%

Problem: Fill in cytotoxicity at 70.5 h for record CCC[C@@H](NC(N)=O)C(=O)N1CCc2c(Cl)cccc2C1
Result: -2.76%

Problem: Fill in cytotoxicity at 70.5 h for record Oc1ccc2oc3c(c2c1CN1CCOCC1)CCCC3
Result: -8.06%

Problem: Fill in cytotoxicity at 70.5 h for record CCn1cc(C(=O)N(C)[C@@H]2CC[C@@H](N3CCCC3)[C@@H]2O)c(C)n1
Result: -5.26%

Problem: Fill in cytotoxicity at 70.5 h for record CN1CCN(C(=O)N2CCCC2)Cc2cccnc21
Result: -6.35%
